target: Cyclin-dependent kinase 2/cyclin A (Homo sapiens) (UniProt P24941+P20248+P78396); conditions: at 1 µM
Rule: residual activity below 80% gives 1.0, anything at or above gives 0.0.

Query block: I'd appreciate it if you could check whether O=C1NC(=O)/C(=C/c2ccc3c(c2)OC(F)(F)O3)S1 has residual activity smaller than 80%.
Result block: 0.0

Query block: I'd appreciate it if you could check whether CCN(CC)C(=O)c1ccc(Nc2nc(OCC3CCCCC3)c3nc[nH]c3n2)cc1 has residual activity smaller than 80%.
Result block: 1.0

Query block: I'd appreciate it if you could check whether O=C1NC(=O)/C(=C\c2ccc3nccnc3c2)S1 has residual activity smaller than 80%.
Result block: 0.0

Query block: I'd appreciate it if you could check whether O=C1NC(=O)c2c1c1c3ccccc3[nH]c1c1[nH]c3cc(Br)ccc3c21 has residual activity smaller than 80%.
Result block: 0.0

Query block: I'd appreciate it if you could check whether CCC(=O)Nc1ccc2ncnc(Nc3cccc(Br)c3)c2c1 has residual activity smaller than 80%.
Result block: 0.0

Query block: I'd appreciate it if you could check whether CC(C)n1cnc2c(NCc3ccccc3)nc(NCCCO)nc21 has residual activity smaller than 80%.
Result block: 1.0
